ASSAY NOTES: in vivo
COND: male, beagle, dog, in vivo, 0.5 mg/kg, Geometric Means, AUCt

>  <GIVEN SMILES>
C=C1CCN([C@H](C)[C@](O)(Cn2cncn2)c2ccc(F)cc2F)CC1

>  <AUC(0-t)>
245 ng·h/mL

$$$$

* * *

ASSAY NOTES: in vivo
COND: male, dog, in vivo, 6 mg/kg, beagle dog, fasting, single 6 mg/kg P.O; individual animals; read-out: Blood voriconazole concentration, Time 1 hr

>  <COMPOUND>
C[C@@H](c1ncncc1F)[C@](O)(Cn1cncn1)c1ccc(F)cc1F [Voriconazole]

>  <concentration at 1 h, ng/mL>
3280

$$$$
